System: human PBMCs
Test details: Cytokine production by human PBMCs treated with ODNs, MagPix Multi-Plex
Assay type: cell-based
Measurement setup: high-dose ODN 10 μM, human PBMC, 24 hrs
Oligonucleotides are written 5' to 3', each unit as a sugar letter and its base; * is a phosphorothioate linkage, no mark a phosphodiester; rarer units and linkages stand in square brackets, end groups in braces. Plain capitals give the bases only. d = 2'-deoxy (DNA); m = 2'-O-methyl
Think of 0.6 pg/mL as a floor: if IL-1β stands on it or above, it is Fulfilled; beneath it, Not fulfilled.

Substance: ODN301C: 5′-GTAGCCCCATCACCCAGCAGC-3′, fully PS, GC-containing (DNA dG*dT*dA*dG*dC*dC*dC*dC*dA*dT*dC*dA*dC*dC*dC*dA*dG*dC*dA*dG*dC)
Cat: Fulfilled
//
Substance: ODN302: 5′-GTCGCTCTTCTCCTCCGCCAG-3′, fully PS; scrambled (non-SMAD7 AON) control sequence with two CG sequences (DNA dG*dT*dC*dG*dC*dT*dC*dT*dT*dC*dT*dC*dC*dT*dC*dC*dG*dC*dC*dA*dG)
Cat: Fulfilled
//
Substance: ODN7040C: 5′-CTGCCAAGTTCACCTGCA*C*C*-3′, PO; * = 2′OMe; control lacking CG-dinucleotide sequences (DNA dCdTdGdCdCdAdAdGdTdTdCdAdCdCdTdGdCmAmCmC)
Cat: Not fulfilled
//
Substance: ODN150C: 5′-G*G*A*ACAGTTAGTCCATa*G*G*C-3′, PO except * = PS; control lacking CG-dinucleotide sequences (DNA GGAACAGTTAGTCCATGGC; listed as DNA, chemistry not fully specified)
Cat: Not fulfilled

###

Listing: IFN-γ of selected substances
Tested on: human PBMCs
Test details: Cytokine production by human PBMCs treated with ODNs, MagPix Multi-Plex
Type: cell-based
Measurement setup: high-dose ODN 10 μM, human PBMC, 24 hrs
Method: PBMC from 3 donors were isolated from Buffy Coat (Blood Center of NY). The cells were washed with PBS and re-suspended in RPMI-1640 Media with 5% Human AB Serum, 1% Pen/Strep and 2 mM L-glutamine. The cells were then plated in 96-well plates at 250,000 cells/well. […] After 24 hrs, the supernatant was harvested and tested for cytokine production using MagPix Multi-Plex Technology. The following cytokines were tested: IL-6, IL-10, IL-12p40, IFN-α, IFN-γ, IP-10, IL-1β and TNF-α.
Oligonucleotides are written 5' to 3', each unit as a sugar letter and its base; * is a phosphorothioate linkage, no mark a phosphodiester; rarer units and linkages stand in square brackets, end groups in braces. Plain capitals give the bases only. d = 2'-deoxy (DNA)
Measure: IFN-γ (pg/mL)

Substance: ODN302: 5′-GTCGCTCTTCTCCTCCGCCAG-3′, fully PS; scrambled (non-SMAD7 AON) control sequence with two CG sequences (DNA dG*dT*dC*dG*dC*dT*dC*dT*dT*dC*dT*dC*dC*dT*dC*dC*dG*dC*dC*dA*dG)
Subject of test: human PBMCs
Endpoint result: 9.7
//
Substance: ODN150: 5′-G*G*A*ACAGTTCGTCCAT*G*G*C-3′, PO except * = PS; antisense to p65 of NF-kB mRNA; tested clinically for ulcerative colitis (DNA dG*dG*dA*dAdCdAdGdTdTdCdGdTdCdCdAdT*dG*dG*dC)
Subject of test: human PBMCs
Endpoint result: 0.2

Where these numbers come from: patent US20180289692A1
